- measured_on: T1, canine NGF tagged at the C-terminus with the Flag tag (canine, UniProt A0A8I3PYI3 122-241)
- T1 construct: mature; also called feline NGF (processed form identical)
- protocol_notes: SPR competition; Ab pre-incubated with 10 nM NGF at Ab to NGF ratio 10 to 1, injected over captured feline TrkA (competitor)
Answer each item with its documented % Block.
State the answer as a number, implicitly in %.

Documented % Block of SC-184_76-Arg (antibody, V domains shown) VH: DVQLVESGGDLVKPGGSLRLTCVASGLSLTSDSMSWVRQAPGKGLQWVSTLWSNRGTYYTDSVKGRFTISKDNAENTLYLQMNNLKTEDTATYYCASIYYYEADYLHWYFDFWGQGALVTVSS VL: EIQMTQSPTSLSASVGDRVTITCRASEGIANNLSWYQQTPGKAPKLLIYATSNLHSGVPSRFSGSGSGTDFTLTISSLQPEDFATYYCQQGFKWPLTFGGGTKLEIT : 99

% Block measured on SC-184_110-Arg (antibody, V domains shown) VH: DVQLVESGGDLVKPGGSLRLTCVASGLSLTSASMSWVRQAPGKGLQWVSTIYSNRGTYYTDSVKGRFTISKDNAENTLYLQMNNLKTEDTATYYCASIYYYEAEYLHWYFDFWGQGALVTVSS VL: EIQMTQSPTSLSASVGDRVTITCRASEGISKNLSWYQQTPGKAPKLLIYATDNLHSGVPSRFSGSGSGTDFTLTISSLQPEDFATYYCQQGWKWPLTFGGGTKLEIT = 100

The binder listed as AHF17602 (antibody, V domains shown) VH: DVQLVESGGDLVKPGGSLRLTCVASGLSLTSSSMVWVRQAPGKGLQWVSTIYSNRGTYYTDSVKGRFTISKDNAENTLYLQMNNLKTEDTATYYCASIYYYDADYLHWYFDFWGQGALVTVSS VL: EIQMTQSPTSLSASVGDRVTITCRASEGIANNLSWYQQTPGKAPKLLIYATSNLHSGVPSRFSGSGSGTDFTLTISSLQPEDFATYYCQQGYKWPLTFGGGTKLEIT has a reported % Block of 99

Query felinized clone 101 (antibody, V domains shown) VH: DVQLVESGGDLVKPGGSLRLTCVASGLSLTSSSMSWVRQAPGKGLQWVSTIYSNGGTYYTDSVKGRFTISKDNAENTLYLQMNNLKTEDTATYYCASIYYYDADYLHWYFDFWGQGALVTVSS VL: EIQMTQSPTSLSASVGDRVTITCRASEGISNNLSWYQQTPGKAPKLLIYATSNLHSGVPSRFSGSGSGTDFTLTISSLQPEDFATYYCQQGYKWPLTFGGGTKLEIT yields % Block of 15
